Task for the reader: assign each of the following binders its reported binding signal.
Measurement Target: d-enCas12a (Acidaminococcus sp., UniProt U2UMQ6 1-1307, E174R;S542R;K548R;D908A;E993A;D1235A)
Protocol Description: Spec-seq (native PAGE EMSA with sequencing of bound and unbound); 25 mM Tris-HCl pH 7.4, 150 mM KCl, 5 mM MgCl2, 10% glycerol, 1 mM DTT, 40 ng/uL salmon sperm DNA; 400 nM Cas12a, 480 nM crRNA, 50 nM library, 37 C 1 h; native PAGE at room temperature; high values mean tight binding;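 also: relative affinity from the bound to unbound sequence frequency ratio in Spec-seq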
Condition Notes: protein: recombinant
Hey, just the number and the unit after it is fine.

Quick check: binding signal of GGAT (dsDNA) DNA 1: GCTATCTAGTGCTCAGTACGCACTGGGATAGGAAACTTCTGGCAGGACCAGGTCATGAGATCGGAAGAGCACACGTCTGAACTCCAGTCA DNA 2: TGACTGGAGTTCAGACGTGTGCTCTTCCGATCTCATGACCTGGTCCTGCCAGAAGTTTCCTATCCCAGTGCGTACTGAGCACTAGATAGC RNA: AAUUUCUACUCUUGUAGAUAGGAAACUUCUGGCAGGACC ?
-5.99 lnKA

Quick check: binding signal of TGTA (dsDNA) DNA 1: GCTATCTAGTGCTCAGTACGCACTGTGTAAGGAAACTTCTGGCAGGACCAGGTCATGAGATCGGAAGAGCACACGTCTGAACTCCAGTCA DNA 2: TGACTGGAGTTCAGACGTGTGCTCTTCCGATCTCATGACCTGGTCCTGCCAGAAGTTTCCTTACACAGTGCGTACTGAGCACTAGATAGC RNA: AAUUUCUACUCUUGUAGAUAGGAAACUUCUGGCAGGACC ?
-0.876 lnKA

Quick check: binding signal of GCGG (dsDNA) DNA 1: GCTATCTAGTGCTCAGTACGCACTGGCGGAGGAAACTTCTGGCAGGACCAGGTCATGAGATCGGAAGAGCACACGTCTGAACTCCAGTCA DNA 2: TGACTGGAGTTCAGACGTGTGCTCTTCCGATCTCATGACCTGGTCCTGCCAGAAGTTTCCTCCGCCAGTGCGTACTGAGCACTAGATAGC RNA: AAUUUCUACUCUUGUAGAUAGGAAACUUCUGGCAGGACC ?
-5.85 lnKA
